# measurement description: recombinant barcode read abundance after kanamycin selection (control-corrected) (log10(CPM+1)); higher = more efficient recombination; sequences stand for … in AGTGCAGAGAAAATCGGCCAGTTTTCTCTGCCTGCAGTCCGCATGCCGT…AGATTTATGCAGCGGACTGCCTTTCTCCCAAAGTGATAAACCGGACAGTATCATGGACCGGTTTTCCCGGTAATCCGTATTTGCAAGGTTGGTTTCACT; site = the 11-nt target
Would you please tag the item YES when its recombinant barcode read abundance (log10) is 0.3 or above, and NO when it is below?

{"biopolymer sequence": "GTCACGCCTTGGGTTCTAACCTGTTGCAT (site GACACACCTAT)", "class": "NO"}
{"biopolymer sequence": "GCACTCTCTTGGGTTCTAACCTGTTGCCT (site GCACGCTCTAG)", "class": "NO"}
{"biopolymer sequence": "CAACCGGCTTGGGTTCTAACCTGTTGCCT (site CAACCGCCTAG)", "class": "NO"}
{"biopolymer sequence": "CAATGGTCTTGGGTTCTAACCTGTTGCAT (site CAATGGTCTAT)", "class": "YES"}
{"biopolymer sequence": "GTTTCGGCTTGGGTTCTAACCTGTTGCCT (site GTTTCGGCTAG)", "class": "YES"}
{"biopolymer sequence": "ACTAGTCCTTGGGTTCTAACCTGTTGCCA (site ACTAGTCCTTG)", "class": "YES"}
{"biopolymer sequence": "TTACGCTCTTGGGTTCTAACCTGTTGCTA (site TTACGCTCTTA)", "class": "YES"}
{"biopolymer sequence": "TAGCCGACTTGGGTTCTAACCTGTTGCTT (site TAGCCGACTAA)", "class": "YES"}
{"biopolymer sequence": "GGCGCATCTTGGGTTCTAACCTGTTGCCT (site GGCGCGTCTAG)", "class": "NO"}
{"biopolymer sequence": "GACATCCCTTGGGTTCTAACCTGTTGCCT (site GACATCCCTAG)", "class": "YES"}

---

# measurement description: recombinant barcode read abundance after kanamycin selection (control-corrected) (log10(CPM+1)); higher = more efficient recombination; sequences stand for … in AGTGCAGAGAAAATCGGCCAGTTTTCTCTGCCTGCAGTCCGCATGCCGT…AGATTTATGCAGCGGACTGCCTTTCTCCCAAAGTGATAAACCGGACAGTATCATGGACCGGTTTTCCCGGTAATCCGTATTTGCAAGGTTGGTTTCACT; site = the 11-nt target
Binary call on recombinant barcode read abundance (log10): label 1 from 0.2 upward, label 0 beneath that.

{"biopolymer sequence": "TAGACATCTTGGGTTCTAACCTGTTGCTC (site TAGTCATCTGA)", "class": "label 0"}
{"biopolymer sequence": "ATGGATACTTGGGTTCTAACCTGTTGCCT (site ATGTACACTAG)", "class": "label 1"}
{"biopolymer sequence": "AACTGAACTTGGGTTCTAACCTGTTGCCT (site AACTCAACTAG)", "class": "label 0"}
{"biopolymer sequence": "TAGCCGACTTGGGTTCTAACCTGTTGCTT (site TAGTCGACTAA)", "class": "label 1"}
{"biopolymer sequence": "AGATTCGCTTGGGTTCTAACCTGTTGCCG (site AGATTCCCTCG)", "class": "label 0"}
{"biopolymer sequence": "CCGTATGCTTGGGTTCTAACCTGTTGCCT (site CCGAATGCTAG)", "class": "label 1"}
{"biopolymer sequence": "TCTCATTCTTGGGTTCTAACCTGTTGCGT (site TCTGATTCTAC)", "class": "label 0"}
{"biopolymer sequence": "ATGAGTCCTTGGGTTCTAACCTGTTGCAA (site TGAGAGACTAC)", "class": "label 0"}
{"biopolymer sequence": "GGACATTCTTGGGTTCTAACCTGTTGCTT (site GGACATTCTAA)", "class": "label 1"}

---

# measurement description: recombinant UMI read abundance after kanamycin selection (control-corrected) (log10(CPM+1)); higher = more efficient recombination; extreme values may be limits of the assay; sequences stand for … in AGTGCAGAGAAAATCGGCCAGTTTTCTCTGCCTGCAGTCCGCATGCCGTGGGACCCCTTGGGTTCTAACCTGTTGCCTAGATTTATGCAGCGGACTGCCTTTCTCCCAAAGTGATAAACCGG…AGGTTGGTTTCACT; site = the 11-nt donor
# label = Yes if recombinant UMI read abundance (log10) >= 0.3 else No

{"biopolymer sequence": "ACAGGATCATGGACCGGTTTTCCCGGTAATCCGTATTTGCC (site ACAGTATCTTG)", "class": "No"}
{"biopolymer sequence": "TCATAATCATGGACCGGTTTTCCCGGTAATCCGTATTTGCA (site TCATAGTCTTG)", "class": "Yes"}
{"biopolymer sequence": "AAGCGTCCATGGACCGGTTTTCCCGGTAATCCGTATTTGCG (site AAGCGTCCTCG)", "class": "Yes"}
{"biopolymer sequence": "CCGCCAGCATGGACCGGTTTTCCCGGTAATCCGTATTTGGG (site CCGCCAGCTCC)", "class": "No"}
{"biopolymer sequence": "CACTCCTCATGGACCGGTTTTCCCGGTAATCCGTATTTGCA (site CACTCCTCTGG)", "class": "Yes"}
{"biopolymer sequence": "GCGAAGCCATGGACCGGTTTTCCCGGTAATCCGTATTTGGA (site GCGAAGCCTTC)", "class": "No"}
{"biopolymer sequence": "GCTAAAGCATGGACCGGTTTTCCCGGTAATCCGTATTTGAT (site GCTAAAGCTAT)", "class": "Yes"}
{"biopolymer sequence": "GAATGGCCATGGACCGGTTTTCCCGGTAATCCGTATTTGCA (site GAATTGCCTTG)", "class": "No"}
{"biopolymer sequence": "GCTGCTCCATGGACCGGTTTTCCCGGTAATCCGTATTTGCT (site GCTGCTCCTAG)", "class": "No"}
{"biopolymer sequence": "GTTGTTTCATGGACCGGTTTTCCCGGTAATCCGTATTTGGT (site GTTGTTTCTAC)", "class": "Yes"}
{"biopolymer sequence": "TCCCGCCCATGGACCGGTTTTCCCGGTAATCCGTATTTGCT (site TCCCGCCCTAG)", "class": "No"}
{"biopolymer sequence": "GACAAACCATGGACCGGTTTTCCCGGTAATCCGTATTTGGT (site GACAAACCTTC)", "class": "No"}
{"biopolymer sequence": "AACTCCTCATGGACCGGTTTTCCCGGTAATCCGTATTTGCC (site AACTCCTCTGG)", "class": "Yes"}
{"biopolymer sequence": "CGTGGAACATGGACCGGTTTTCCCGGTAATCCGTATTTGTC (site CGTGGAACTAA)", "class": "No"}
{"biopolymer sequence": "AGTACTGCATGGACCGGTTTTCCCGGTAATCCGTATTTGGT (site AGTACTGCTAC)", "class": "Yes"}
{"biopolymer sequence": "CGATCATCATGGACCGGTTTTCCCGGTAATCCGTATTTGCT (site CGATTATCTTG)", "class": "No"}
{"biopolymer sequence": "AAAGTATCATGGACCGGTTTTCCCGGTAATCCGTATTTGCT (site ACAGTATCTTG)", "class": "No"}
{"biopolymer sequence": "GTAGTCGCATGGACCGGTTTTCCCGGTAATCCGTATTTGCA (site GTAGTCGCTCG)", "class": "Yes"}

---

recombinant UMI read abundance (log10): recorded values
# measurement description: recombinant UMI read abundance after kanamycin selection (control-corrected) (log10(CPM+1)); higher = more efficient recombination; extreme values may be limits of the assay; sequences stand for … in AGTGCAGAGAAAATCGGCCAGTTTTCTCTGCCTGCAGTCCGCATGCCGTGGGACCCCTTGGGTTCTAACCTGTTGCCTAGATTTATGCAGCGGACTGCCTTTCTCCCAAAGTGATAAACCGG…AGGTTGGTTTCACT; site = the 11-nt donor

{"biopolymer sequence": "GTAGGTACATGGACCGGTTTTCCCGGTAATCCGTATTTGCC (site GTAGGTACTGC)", "recombinant UMI read abundance (log10)": 0.00606}
{"biopolymer sequence": "CGAATAACATGGACCGGTTTTCCCGGTAATCCGTATTTGCC (site CGAATAACTGG)", "recombinant UMI read abundance (log10)": 0.484}
{"biopolymer sequence": "AAAGTAACATGGACCGGTTTTCCCGGTAATCCGTATTTGCT (site AACGTAACTAG)", "recombinant UMI read abundance (log10)": 2.06}
{"biopolymer sequence": "GAATATTCATGGACCGGTTTTCCCGGTAATCCGTATTTGTT (site GAATATTCTAA)", "recombinant UMI read abundance (log10)": 0.948}
{"biopolymer sequence": "CTGTACACATGGACCGGTTTTCCCGGTAATCCGTATTTGCT (site CTATACACTAG)", "recombinant UMI read abundance (log10)": 2.55}
